organism: Mus musculus; test: Effect on percent increase in seizure threshold was evaluated by maximal electroshock threshold (MEST) test in mouse; assay type: functional
Reported Increase values for a set of molecules

molecule | Increase
CC1(C)Oc2ccc(C#N)cc2[C@@H](NC(=O)c2ccc(F)cc2)[C@@H]1O | 17%

Lookup: Returns the measured Increase for the input molecule. Input: CC1(C)Oc2ccc(C#N)cc2[C@H](NC(=O)c2ccc(F)cc2)[C@H]1O
Found: 41%

Lookup: Returns the measured Increase for the input molecule. Input: CC1(C)Oc2ccc(C#N)cc2[C@@H](NC(=O)c2ccc(F)cc2)[C@H]1O
Found: 0%

Lookup: Returns the measured Increase for the input molecule. Input: CC1(C)Oc2ccc(C#N)cc2[C@H](NC(=O)c2ccc(F)cc2)[C@@H]1O
Found: 28%

Lookup: Returns the measured Increase for the input molecule. Input: CC1(C)CC(NC(=O)c2ccc(F)cc2)c2cc(C#N)ccc2O1 (stereo not given)
Found: 5%
